method-notes: qHTS RealTime-Glo MT Cell Viability Assay in HepG2 cells - 24 hour (AID 1224867); further: nearly all actives have a fitted effect of over 50% in size
experimental-parameters: RealTime-Glo luminescence; series mostly up to 76.8 µM
From the text: U.S. Tox21 Program National Center for Advancing Translational Sciences [NCATS] NIH Chemical Genomics Center [NCGC] U.S. Environmental Protection Agency [EPA] National Institutes of Environmental Health Sciences [NIEHS] National Toxicology Program [NTP] U.S. Food and Drug Administration [FDA] Tox21 Assay Overview: Measure of cell viability is critical in the cell-base assay. Analysis of cell viability is necessary for the characterization of cell responses to cytotoxic drugs and environmental stress. […]
Results filed as inconclusive are left out. Active and inactive are the calls of the source. The call rests on the fitted dose curve; in most records, active means well fitted cell-killing curve with a large enough effect in the repeat runs; inconclusive means weak or mixed curves; inactive means flat fitted curve, though single readings scatter.
Assign a class; possible classes are active, inactive

Solved entries (count: 2):
• Nc1cccc2c1CN(C1CCC(=O)NC1=O)C2=O (stereo unspecified) = inactive
• COC(=O)C1=C(C)NC(C)=C(C(=O)O[C@@H]2CCCN(Cc3ccccc3)C2)[C@@H]1c1cccc([N+](=O)[O-])c1 = inactive

Exercise: Identify the outcome logged in this assay for the molecule shown: CC(C)COCC(CN(Cc1ccccc1)c1ccccc1)N1CCCC1 (stereo unspecified)
Key: active

Exercise: Identify the outcome logged in this assay for the molecule shown: `Cc1cc(C)c(N)cc1C`
Key: inactive

Exercise: Identify the outcome logged in this assay for the molecule shown: `O=C1c2ccccc2C(=O)C1c1nc2ccccc2c(Br)c1O`
Key: inactive

Exercise: Identify the outcome logged in this assay for the molecule shown: `C[C@@H](O[C@H]1OCCN(Cc2n[nH]c(=O)[nH]2)[C@H]1c1ccc(F)cc1)c1cc(C(F)(F)F)cc(C(F)(F)F)c1`
Key: active

Exercise: Identify the outcome logged in this assay for the molecule shown: `CCn1cc(C(=O)O)c(=O)c2cc(F)c(N3CCNCC3)cc21`
Key: inactive

Exercise: Identify the outcome logged in this assay for the molecule shown: `C=CC(=O)[O-].C=CC(=O)[O-].[Zn+2]`
Key: inactive

Exercise: Identify the outcome logged in this assay for the molecule shown: `CC1(C)[C@@H](OC(=O)CCC(=O)O)CC[C@]2(C)[C@H]3C(=O)C=C4[C@@H]5C[C@@](C)(C(=O)O)CC[C@]5(C)CC[C@@]4(C)[C@]3(C)CC[C@@H]12`
Key: inactive

Exercise: Identify the outcome logged in this assay for the molecule shown: `CC1(C)[C@H](C(=O)O)N2C(=O)C[C@H]2S1(=O)=O`
Key: inactive

Exercise: Identify the outcome logged in this assay for the molecule shown: `CN(C)CCC=C1c2ccccc2C=Cc2ccccc21`
Key: inactive

Exercise: Identify the outcome logged in this assay for the molecule shown: `Cc1cc(O)ccc1O`
Key: inactive

Exercise: Identify the outcome logged in this assay for the molecule shown: O=C1C(=O)c2ccccc2C(O)=C1C1CCC(c2ccc(Cl)cc2)CC1 (stereo unspecified)
Key: inactive

* * *

method-notes: qHTS assay to test for compound auto fluorescence at 535 nm (green) in HEK293 cells (AID 720680); further: on the % scale 0 is the no-effect control and ±100 the full control effect
experimental-parameters: green autofluorescence 485/535 nm; series mostly up to 91.3 µM
Activity calls are given as the source filed them. Calls follow the shape of the dose curve; as a rule, active = well fitted curve in the direction sought with a large enough effect in the repeat runs; inconclusive = weak or mixed curves; inactive = flat fitted curve, though single readings scatter.
observation-type: fluorescence, % of fluorescein

• C[C@@H]1CC(=O)NN=C1c1ccc(NN=C(C#N)C#N)cc1 = inactive
• C/C=C(/C(=C/C)c1ccc(O)cc1)c1ccc(O)cc1 = 0.128% [at 18.6 µM] (inactive)
• C=C1c2cccc(O)c2C(O)=C2C(=O)[C@]3(O)C(O)=C(C(N)=O)C(=O)[C@@H](N(C)C)[C@@H]3[C@@H](O)[C@H]12 = 0.0422% [at 18.6 µM] (inactive)
• Nc1ccc(N=Nc2ccccc2)c(N)c1 = inactive
• O=[N+]([O-])c1ccc(Nc2ccc(Nc3ccccc3)c(S(=O)(=O)O)c2)c([N+](=O)[O-])c1 = inactive

Exercise: What value of measured fluorescence, % of fluorescein is listed for `CC(C)Nc1cccnc1N1CCN(C(=O)c2cc3cc(NS(C)(=O)=O)ccc3[nH]2)CC1` ?
Key: inactive

Exercise: What value of measured fluorescence, % of fluorescein is listed for `COc1cc(C(=O)NCCCCCC(=O)O)cc(OC)c1OC` ?
Key: inactive
